Values compiled from patent US10138230B2.

- tested.on: human recombinant ATX (Homo sapiens (Human))
- assay.comment: Autotaxin (ATX) activity Quanta Red assay
- assay.context: 15 μM Rac-1-Palmitoyl-glycero-3-phosphocholine, 2 hours room temperature, determined in duplicate
Please provide measured IC50 for the entries that follow.
Put down the number, then write its unit next to it.

Here is how some compounds turned out for IC50.
QUERY: Which value of IC50 has been reported for O=C(Nc1nnc(CCc2ccc(Cl)cc2)s1)[C@H]1CC(=O)N(c2ccc(CN3CC4CC4C3)cc2)C1 (some centres unmarked) in the records?
RESULT: 3 nM

QUERY: Entry to check: O=C(NC1CC(=O)N(c2ccc(CN3CCCCC3)cc2)C1)c1nnc(CCc2ccco2)s1 (centres unmarked)
RESULT: 766 nM

QUERY: Entry to check: O=C(Nc1nnc(CCc2ccccc2)s1)C1CC(=O)N(c2ccc(CN3CCOCC3)cc2)C1 (centres unmarked)
RESULT: 11 nM

Could I get IC50 for every one of these entries?
1. CN(C)Cc1ccc(N2CC(C(=O)Nc3nnc(CCc4ccc(Cl)cc4)s3)CC2=O)cc1 (centres unmarked)
2. O=C(Nc1nnc(CCc2ccc(Cl)cc2)s1)[C@H]1CC(=O)N(c2ccc(CN3CCC4(COC4)C3)cc2)C1

RESULT:
1: 29 nM; 2: 1 nM

Could I get IC50 for every one of these entries?
1. O=C(Nc1nnc(CCC2CCCCC2)s1)C1CC(=O)N(c2ccc(CN3CCCOCC3)cc2)C1 (centres unmarked)
2. O=C(Nc1nnc(CCc2ccc(Cl)cc2)s1)[C@H]1CC(=O)N(c2ccc(CN3CCCOCC3)cc2)C1
3. CN(Cc1ccc(N2CC(C(=O)Nc3nnc(CCc4ccc(Cl)cc4)s3)CC2=O)cc1)C1CCOCC1 (centres unmarked)

RESULT:
["2 nM", "3 nM", "3 nM"]

* * *

- tested.on: human recombinant ATX (Homo sapiens (Human))
- assay.comment: Autotaxin (ATX) activity Quanta Red assay
- assay.context: 15 μM Rac-1-Palmitoyl-glycero-3-phosphocholine, 2 hours room temperature, determined in duplicate
Structures can show the parent of a compound that is named as a salt.
quantity.name: log10 of IC50 (log10 of the value in nM)
Field: value | Transform: log10 | Quantity: IC50 | Unit: nM

Here is how some compounds turned out for log10 of IC50.
QUERY: Which value of log10 of IC50 has been reported for CCN(C)Cc1ccc(N2CC(C(=O)Nc3nnc(CCc4ccc(Cl)cc4)s3)CC2=O)cc1 (stereo not shown) [Compound F211] in the records?
RESULT: 0.95

QUERY: Entry to check: O=C1CC(CNc2nnc(CCc3ccc(Cl)cc3)s2)CN1c1ccc(CN2CCOCC2)cc1 (stereo not shown) [Compound F153]
RESULT: 0.30

QUERY: Entry to check: O=C(Nc1nnc(CCC2CCCC2)s1)C1CC(=O)N(c2ccc(CN3CCC(F)(F)CC3)cc2)C1 (stereo not shown) [Compound F123]
RESULT: 0.70

QUERY: Entry to check: COc1ccc(CCc2nnc(NC(=O)C3CC(=O)N(c4ccc(CN5CCOCC5)cc4)C3)s2)cc1 (stereo not shown) [Compound F150]
RESULT: 0.90

QUERY: Entry to check: O=C(Nc1nnc(CCc2ccc(Cl)cc2)s1)C1CC(=O)N(c2ccc(CN3CCCC3)cc2)C1 (stereo not shown) [Compound F151]
RESULT: 0.95

QUERY: Entry to check: O=C(Nc1nnc(CCC2CCCO2)s1)[C@H]1CC(=O)N(c2ccc(CN3CCOCC3)cc2)C1 (stereo partly shown) [Compound F186]
RESULT: 2.13

QUERY: Entry to check: O=C(NC1CC(=O)N(c2ccc(CN3CCCCC3)cc2)C1)c1nnc(CCc2ccccc2)o1 (stereo not shown) [Compound F194]
RESULT: 2.81

QUERY: Entry to check: CCN(Cc1ccc(N2CC(C(=O)Nc3nnc(CCc4ccc(Cl)cc4)s3)CC2=O)cc1)C(C)C (stereo not shown) [Compound F127]
RESULT: 0.95

QUERY: Entry to check: COCCN(C)Cc1ccc(N2CC(C(=O)Nc3nnc(CCc4ccc(Cl)cc4)s3)CC2=O)cc1 (stereo not shown) [Compound F100]
RESULT: 0.30

QUERY: Entry to check: O=C(Nc1nnc(CCc2ccc(Cl)cc2)s1)C1CC(=O)N(c2ccc(CN3CCNCC3)cc2)C1 (stereo not shown) [Compound F160, dihydrochloride]
RESULT: 1.38

Could I get log10 of IC50 for every one of these entries?
1. CCC(C)CCc1nnc(NC(=O)C2CC(=O)N(c3ccc(CN4CCCCC4)cc3)C2)s1 (stereo not shown) [Compound F182, hydrochloride]
2. O=C(Nc1cc(CCc2ccc(Cl)cc2)on1)C1CC(=O)N(c2ccc(CN3CCCCC3)cc2)C1 (stereo in doubt) [Compound F146]
3. CC1CCN(Cc2ccc(N3C[C@@H](NC(=O)c4nnc(CCc5ccc(Cl)cc5)s4)CC3=O)cc2)CC1 [Compound F137, hydrochloride]

RESULT:
1. 1.32
2. 0.00
3. 0.60
